Test system: LPS-induced NO production in RAW 264.7 macrophage cells
Protocol Description: Inhibition of LPS-induced NO production (nitrite, Griess reagent)
Protocol Conditions: Mus musculus, RAW264.7, read-out: IC50 (concentration that caused 50% inhibition of NO production), LPS-activated RAW 264.7 macrophage cells; pretreated 1 h with compounds, then LPS (1 μg/mL) for 24 h; mean ± SD, three independent experiments
pIC50: −log10 of the molar value.
Known pIC50 of a selection of compounds

{"Compound": "COc1cc([C@H]2OC[C@@H]3[C@H]2CO[C@H]3c2ccc3c(c2)OCO3)ccc1O [Compound 6, (+)-piperitol]", "pIC50": 4.65}
{"Compound": "O=C1OC[C@H](Cc2ccc3c(c2)OCO3)[C@H]1Cc1ccc2c(c1)OCO2 [Compound 3, (−)-hinokinin]", "pIC50": 4.67}
